# System: VRK2
# testSettings: concentration: 1 μM, replicates: in singlicate; n = 1;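 note: KINOMEscan kinase panel screen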
readoutName: %Inh (%)
Supply the numeric figure in %, leaving out any unit text.

See these solved cases before continuing.
[[record]]
compound = "O=c1cc(N2CCOCC2)nc2n(Cc3ccc(F)c(Cl)c3)ccn12 [GSK2297099]"
measurementtarget = "VRK2"
readoutname = "%Inh"
testvalue = 0

[[record]]
compound = "CCC(=O)c1c(-c2ccccc2)c2cc(Cl)ccc2c(=O)n1Cc1ccc(C(=O)O)cc1"
measurementtarget = "VRK2"
readoutname = "%Inh"
testvalue = 0

[[record]]
compound = "CCC(=O)c1c(-c2ccccc2)c2cc(Cl)ccc2c(=O)n1Cc1cc(S(C)(=O)=O)n(CC(F)F)n1"
measurementtarget = "VRK2"
readoutname = "%Inh"
testvalue = 0

[[record]]
compound = "Cc1ccc(-c2ccc3c(ccc4sc5c(c43)NC[C@@H](C)N=C5N(C)C)n2)cn1"
measurementtarget = "VRK2"
readoutname = "%Inh"
testvalue = 0

[[record]]
compound = "COc1cc2ncn(-c3cc(OCc4ccncc4Br)c(C(N)=O)s3)c2cc1OC [GW854278]"
measurementtarget = "VRK2"
readoutname = "%Inh"
testvalue = 24

[[record]]
compound = "Nc1n[nH]c2ncc(-c3ccccc3)cc12 [SB-517081]"
measurementtarget = "VRK2"
readoutname = "%Inh"
testvalue = 11

[[record]]
compound = "CN(C)c1cc(-c2ccc3c(N)n[nH]c3c2)nc(N)n1 [GSK2219329]"
measurementtarget = "VRK2"
readoutname = "%Inh"
testvalue = 0

[[record]]
compound = "COc1cc(OC)cc(-c2cc3cnc(N)nc3nc2NC(=O)NC(C)(C)C)c1"
measurementtarget = "VRK2"
readoutname = "%Inh"
testvalue = 0


Could you tell me which %Inh is on file for COc1cc2nccc(Nc3ccc(OCc4ccc(NC(C)=O)cc4)cc3)c2cc1OC.Cl [GW440135] ?
35

Could you tell me which %Inh is on file for `COC(=O)c1c(-c2ccccc2)c2cc(C)ccc2c(=O)n1Cc1ccccc1` ?
0

Could you tell me which %Inh is on file for CCCC(=O)Nc1n[nH]c2ncc(-c3cccc4ccccc34)cc12 [SB-642057] ?
0

Could you tell me which %Inh is on file for COc1ccc(Nc2nccc(N3CCC(NS(=O)(=O)c4ccc(NC(C)=O)cc4)C3)n2)cc1 (stereo not drawn) [GSK1379729] ?
16

Could you tell me which %Inh is on file for `Cn1c(=O)c(F)c(Nc2ccc(I)cc2F)c2c(=O)n(OC[C@H](O)CO)cnc21` ?
0

Could you tell me which %Inh is on file for CCS(=O)(=O)c1ccc(OC)c(Nc2ncc(-c3ccc(F)cc3)o2)c1.Cl [GW591947] ?
0

Could you tell me which %Inh is on file for CCn1c(-c2ccoc2)nc2cnccc21 [SB-733887] ?
8

* * *

# System: FLT3-autoinhibited
# testSettings: concentration: 1 μM, replicates: in singlicate; n = 1
readoutName: %Inh (%)
Supply the numeric figure in %, leaving out any unit text.

See these solved cases before continuing.
[[record]]
structure = "Nc1nc(-c2ccccc2F)c(-c2ccnc3ccccc23)s1"
readoutname = "%Inh"
testvalue = 0

[[record]]
structure = "COc1cc2ncn(-c3cc(OCc4ccc(S(C)(=O)=O)cc4)c(C(N)=O)s3)c2cc1OC"
readoutname = "%Inh"
testvalue = 14

[[record]]
structure = "CCn1c(-c2nonc2N)nc2ccccc21"
readoutname = "%Inh"
testvalue = 52

[[record]]
structure = "CN1C(=O)C(Nc2ccccc2)=C(c2ccccc2)C1=O"
readoutname = "%Inh"
testvalue = 0

[[record]]
structure = "COc1cc2ncn(-c3cc(OCc4ccncc4Br)c(C(N)=O)s3)c2cc1OC"
readoutname = "%Inh"
testvalue = 22

[[record]]
structure = "Nc1ncnc2c1ncn2-c1cccc2ccccc12"
readoutname = "%Inh"
testvalue = 0

[[record]]
structure = "OCCCNc1nccc(-c2c(-c3cccc(C(F)(F)F)c3)nn3cc(C(F)(F)F)ccc23)n1"
readoutname = "%Inh"
testvalue = 0

[[record]]
structure = "CCC(=O)c1c(-c2ccccc2)c2cc(Cl)ccc2c(=O)n1Cc1cc(S(C)(=O)=O)n(CCC(C)(C)O)n1"
readoutname = "%Inh"
testvalue = 2


# value lookup — system FLT3-autoinhibited, readout %Inh, item `CCn1c(-c2ccoc2)nc2cnccc21`
65

Where do these numbers come from? They come from paper PMC5540273.
